Test system: Myzus persicae
Procedure text: Test Example 12: insecticidal test against Myzus persicae (leaf spray on young white radish plant, single and combined chemicals)
Format: in vivo
Condition info: 1 ppm, after 5 days
Endpoint: Insect death ratio (%)

[[record]]
compound = "CC1=NNC(=O)N(/N=C/c2cccnc2)C1 [Pymetrozine, pymetrozine]"
endpoint = "Insect death ratio (%)"
reported = 89

[[record]]
compound = "CN1COCN(Cc2cnc(Cl)s2)/C1=N\\[N+](=O)[O-] [Thiamethoxam, thiamethoxam]"
endpoint = "Insect death ratio (%)"
reported = 94

[[record]]
compound = "O=[N+]([O-])NC1=NCCN1Cc1ccc(Cl)nc1 [Imidacloprid, imidacloprid, reference compound]"
endpoint = "Insect death ratio (%)"
reported = 100

[[record]]
compound = "CC(=O)N1C(=O)N(NCc2cccnc2)Cc2cc(C(F)(C(F)(F)F)C(F)(F)F)ccc21 [Pyrifluquinazon, pyrifluquinazon]"
endpoint = "Insect death ratio (%)"
reported = 100

[[record]]
compound = "N#CCNC(=O)c1cnccc1C(F)(F)F [Flonicamid, flonicamid]"
endpoint = "Insect death ratio (%)"
reported = 79

